Test system: TGF-beta 1
experimental-details: Relative gene expression in reconstructed dermal papillae: TGF-beta 1
Format: cell-based
experimental-setup: 0.1% (wt. %); 24 hours; untreated medium = 1.00
Each entry below carries its recorded Differential gene expression TGFβ1 (Catagen).
Lab note: jot the number down without any unit.

INSERT INTO assay_data (compound, assayed_system, value_measured) VALUES
  ('N[C@@H](CCCCNCC(=O)[C@@H](O)[C@H](O)[C@H](O)CO)C(=O)O [Fructoselysine (12), N-ε-fructosyllysine]', 'TGF-beta 1', '−1.10');

// fetch TGF-beta 1 Differential gene expression TGFβ1 (Catagen) for N[C@@H](CCCCNCC(=O)O)C(=O)O [Carboxymethyllysine (13), N-ε-carboxymethyllysine] 1.35

Give Differential gene expression TGFβ1 (Catagen) (TGF-beta 1) of the following compound: Cc1c(O)c(=O)ccn1CCCC[C@H](N)C(=O)O [Maltosine (15), maltosine] 3.39

Entry CC1NC(NCCC[C@H](N)C(=O)O)=NC1=O (some centres unmarked) [Ornithinoimidazolinone (16), ornithinoimidazolinone] , system TGF-beta 1: what Differential gene expression TGFβ1 (Catagen) was measured? 1.08

Short answer please: Differential gene expression TGFβ1 (Catagen), TGF-beta 1, entry O=CC(=O)C[C@H](O)[C@H](O)CO [3-Desoxyglucosulose (18), 3-desoxyglucosulose] −1.27
